System: T-47D breast
TEST NAME: NCI tumour cell line growth inhibition, 48 h
QUANTITY MEASURED: TGI

These solved cases illustrate the format of a correct answer.
N#CCCSC(=S)C1CCCC1=N (stereo unspecified)    > 100 µM
c1ccc(CCN2CCOCC2)nc1    > 100 µM
CC(C)[Si](OC1=C(c2ccccc2)C(NC(=O)/C=C/c2ccc([N+](=O)[O-])cc2)CCC1)(C(C)C)C(C)C (stereo unspecified)    > 100 µM
CC1OC(OC2C(CO)OC(O[C@H]3CC[C@@]4(C)C(=CC[C@H]5[C@@H]6C[C@@H]7O[C@](O)(CC[C@H](CO)COC8OC(CO)C(O)C(O)C8O)[C@@H](C)[C@@H]7[C@@]6(C)CC[C@@H]54)C3)C(OC3OC(C)C(O)C(O)C3O)C2O)C(O)C(O)C1O (stereo partly specified)    > 100 µM
C[C@H](N[C@H]1CCC[C@]1(O)C#Cc1ccc2c(c1)OCO2)c1ccccc1    > 25 µM

Quick one: TGI for CC(C)[Si](OC1=C(C(=O)N(C)c2ccccc2Cl)CCCCC1)(C(C)C)C(C)C ?
> 100 µM

// repeat for Cc1coc2c1C(=O)C(=O)c1c-2ccc2c1CCCC2(C)C and report
> 100 µM

// repeat for CCOC(=O)N1CCN(c2nc(C)n(-c3ccccc3)c(=S)c2C#N)CC1 and report
> 100 µM

// repeat for Nc1ncnc2c1ncn2C1C=CC(COS(N)(=O)=O)C1 (stereo unspecified) and report
> 100 µM

// repeat for CCOC1(OCC)N=C(N)C2(C#N)C3(C(=O)N(C(C)C)N=C3C)C12C#N (stereo unspecified) and report
> 100 µM

// repeat for O=C1C2=Cc3ccccc3OC2(O)Oc2ccc(O)cc21 (stereo unspecified) and report
> 100 µM

====

Test system: OVCAR-8 ovarian
TEST NAME: NCI tumour cell line growth inhibition, 48 h
QUANTITY MEASURED: TGI (µM)
Quick note: give the figure in µM, leave out the unit.

O=C(NCCNc1nccc(-c2c(-c3cccc(O)c3)nc3sccn23)n1)Nc1cccc(C(F)(F)F)c1    11

Quick one: TGI for Cc1ccc(C(=O)C#Cc2c[nH]c(=O)[nH]c2=O)cc1 ?
25.1

====

System: A498 renal
TEST NAME: NCI tumour cell line growth inhibition, 48 h
Where a SMILES comes first, the peptide text is derived from it.
QUANTITY MEASURED: TGI

These solved cases illustrate the format of a correct answer.
CNS(=O)(=O)c1ccc2[nH]c(O)c(C3=Nc4ccccc4C3=O)c2c1    > 100 µM
C[C@]12CC[C@H]3[C@@H](CCC4=CC(=O)CC[C@@]43C)[C@@H]1CC[C@@H]2C(=O)Nc1ccc([N+](=O)[O-])c(C(F)(F)F)c1    33.6 µM
COC(=O)c1cnn2c1ccc1ccccc12    > 100 µM
Cn1c(=O)cc(N=Nc2ccc(Cl)c(Cl)c2)[nH]c1=O    > 100 µM
CN(C)C1(N(C)C)Oc2c(c(=O)n(C)c(=O)n2C)C(c2ccccc2Br)C1(F)F (stereo not drawn)    > 100 µM

Quick one: TGI for CNC(=O)CNC(=O)C(NC(=O)CNC(=O)C1CCCN1C(=O)C(C)NC(=O)C(NC(C)=O)C(C)C)C(C)C (stereo not drawn) (Ac-VAPGVG-NHMe; configuration not given here) ?
> 100 µM

// repeat for CC(CO)(CBr)COC(=O)c1cc(Br)c(N)c(Br)c1 (stereo not drawn) and report
> 100 µM

// repeat for Clc1ccc(C2=NN[C@H](c3cn(-c4ccccc4)nc3-c3ccccc3)C2)cc1 and report
8.77 µM

// repeat for N#Cc1c(N)nc(NCc2ccccc2)c(C#N)c1-c1ccccc1Cl and report
46.9 µM

// repeat for COc1cc(-n2cnc(-c3ccc(Cl)cc3)c2)cc(OC)c1OC and report
31.6 µM

====

System: NCI-H226 lung
TEST NAME: NCI tumour cell line growth inhibition, 48 h
The reader will find reported TGI values listed item by item below.

COc1ccc(OC)c(/C=C2\COc3ccc(O)c(O)c3C2=O)c1    36.8 µM
CC1=CC(=O)C(=CN2C(=O)/C(=C\c3cccnc3)NC2=S)C(=O)O1    > 100 µM
O=C(Nc1sccc1S(=O)(=O)c1ccc(Cl)cc1)c1ccccc1    > 100 µM
COc1ccccc1/C=C/c1c(N)ncnc1Nc1cccc(Cl)c1    49 µM

Quick one: TGI for O=C1C2=Cc3ccccc3OC2(O)Oc2ccc(O)cc21 (configuration not stated) ?
> 100 µM

// repeat for Cc1c(-c2nnc(-c3ccc(F)cc3)o2)nnn1-c1ccnc2c(C(F)(F)F)cccc12 and report
> 100 µM

// repeat for Cc1ccc(-c2nc(N)c(C#N)c3c2CCOc2c-3ccc3ccccc23)cc1 and report
> 100 µM

====

The reader will find reported TGI values listed item by item below.
Tested on: DLD-1 colon
TEST NAME: NCI tumour cell line growth inhibition, 48 h

These solved cases illustrate the format of a correct answer.
CC(C(=O)O)/C(=C\c1ccc2c(c1)OCO2)C(=O)O (stereo not drawn)    > 100 µM
N#CCCOCN(CO)c1nc(N(CO)COCCC#N)nc(N(CO)COCCC#N)n1    75.9 µM
COc1ccc(C(=O)CC(=O)C(=O)Nc2ccc(C)c(C)c2)cc1    > 100 µM
Nc1cccc2c1C1=NNC(=O)CC1C2 (stereo not drawn)    > 100 µM
CSc1nc(C)c(Br)c(=O)n1C1OC(COC(C)=O)C(OC(C)=O)C(OC(C)=O)C1OC(C)=O (stereo not drawn)    > 100 µM

API: value(readout= TGI, system= DLD-1 colon, query= CCC[CH2][Sn]1([CH2]CCC)[O]CC(CN2CCOCC2)[O]1 (stereo not drawn) )
16.8 µM

// repeat for COC(=O)CS(=O)c1ccccc1 (stereo not drawn) and report
> 100 µM

// repeat for NCCCNCCSSC/C=C\CSSCCNCCCN and report
> 100 µM

// repeat for CCCCCCCCCCCCCCCCCC(=O)OCC(C[As](=O)(O)O)OC(=O)CCCCCCCCCCCCCCCCC (stereo not drawn) and report
> 100 µM

// repeat for COc1ccc(NC(=O)CC(=O)N2N=C(N(CCC#N)c3cccc(C)c3)CC2c2ccccc2)cc1 (stereo not drawn) and report
> 100 µM

// repeat for COc1cc(Nc2nc3cc(C(F)(F)F)ccc3nc2-c2ccccc2)cc(OC)c1OC and report
> 100 µM

// repeat for CC(C)NC(=O)OCc1c(COC(=O)NC(C)C)c(-c2ccc(Cl)c(Cl)c2)n2c1CCC2 and report
> 72.3 µM

// repeat for CCOC(=O)C(=O)Nc1c(CC)cccc1C(C)CC (stereo not drawn) and report
> 100 µM

====

Tested on: MOLT-4 leukemia
TEST NAME: NCI tumour cell line growth inhibition, 48 h
QUANTITY MEASURED: TGI

N#Cc1c(N)nc(NCc2ccccc2)c(C#N)c1-c1ccccc1Cl    > 100 µM
CC(C(=O)O)/C(=C\c1ccc2c(c1)OCO2)C(=O)O (configuration not stated)    > 21.9 µM
CC1(C)CCCCCCC2CC2CCCCCC(C)(C)C1=O (configuration not stated)    > 100 µM
Oc1ccc(-c2cn3cc(Cl)sc3n2)cc1    34.3 µM
OCCCc1cc(O)c2c(c1)C(CO)C(c1ccc(O)c(O)c1)O2 (configuration not stated)    > 100 µM
CCCC(=O)Nc1ccc2c(c1)CN1C(=O)c3ccccc3C1=N2    > 100 µM

API: value(readout= TGI, system= MOLT-4 leukemia, query= CCCCCCCCCCCCCCCCCC(=O)OCC(COC1OC(CS(=O)(=O)O)C(O)C(O)C1O)OC(=O)CCCCCCCCCCCCCCCCC (configuration not stated) )
> 100 µM

// repeat for O=C(NCCNc1nccc(-c2c(-c3cccc(O)c3)nc3sccn23)n1)Nc1cccc(C(F)(F)F)c1 and report
14.6 µM

// repeat for CC(C)n1c(=O)n(C)c2cnc3cc(F)c(-c4ccc(OCCCN5CCCCC5)nc4)cc3c21 and report
41.5 µM

// repeat for O=C1c2cc([N+](=O)[O-])cc3cc([N+](=O)[O-])cc(c23)C(=O)N1CCCNCCNCCCN1C(=O)c2cc([N+](=O)[O-])cc3cc([N+](=O)[O-])cc(c23)C1=O and report
1.41 µM

// repeat for O=Nc1sc(=N\O)/c(=N/O)sc1NO and report
> 100 µM

// repeat for O=[N+]([O-])c1ccc(N/N=C(\c2ccccc2)c2ccccn2)nc1 and report
> 67.2 µM

====

Test system: SF-268 CNS
TEST NAME: NCI tumour cell line growth inhibition, 48 h
The reader will find reported TGI values listed item by item below.

CCOC(=O)c1nnsc1NN=C(C)C    > 100 µM
CCCC(=O)Nc1ccc2c(c1)CN1C(=O)c3ccccc3C1=N2    > 100 µM
OCC1OC2OC3C(CO)OC(OC4C(CO)OC(OC5C(CO)OC(OC6C(CO)OC(OC7C(CO)OC(OC1C(O)C2O)C(O)C7O)C(O)C6O)C(O)C5O)C(O)C4O)C(O)C3O (stereo not drawn) (tested in a mixture with another compound)    > 100 µM
CCC12CC(c3ccccc3)C(C(=O)N1)C(=O)N2 (stereo not drawn)    > 100 µM
COC(=O)Cc1c(/C=C/C(C)(C)n2cnc(CCN3C(=O)CCC3=O)c2)[nH]c2ccccc12    > 100 µM

Quick one: TGI for Brc1ccccc1C=NC12CC3CC(CC(C3)C1)C2 ?
> 100 µM

// repeat for CCOC(=O)c1[nH]cc(C)c1-c1c[nH]c2ccccc12 and report
> 100 µM

// repeat for c1ccc(CN2CCCCC(Sc3ccccc3)CC2)cc1 (stereo not drawn) and report
> 100 µM

// repeat for COc1ccc(-c2cc(-c3cc(C)ccc3O)[nH]c(=O)n2)cc1 and report
> 100 µM

// repeat for O=C(NCCNc1nccc(-c2c(-c3cccc(O)c3)nc3sccn23)n1)Nc1cccc(C(F)(F)F)c1 and report
14.6 µM
